Assay: maximum tolerated dose (MTD) in rats
Type: in vivo
Details: rat, in vivo, read-out: MTD
Overview of recorded MTD for various compounds
Unit µg/kg implied. Number only.

// solved cases for MTD follow
compound	data.value
CC(=O)OC1C/C(=C/C=C2\CCC[C@]3(C)C(C(C)C/C=C\C(O)(C(F)(F)F)C(F)(F)F)=CCC23)C[C@@H](OC(C)=O)C1 (stereo partly shown)	0.1
C=C1/C(=C\C=C2/CCC[C@]3(C)C(C4(CC#CC(O)(C(F)(F)F)C(F)(F)F)CC4)=CCC23)CC(O)C[C@@H]1O (stereo partly shown)	0.3
C=C1/C(=C\C=C2/CCC[C@]3(C)C(C4(CCCC(C)(C)O)CC4)=CCC23)CC(O)C[C@@H]1O (stereo partly shown)	1
C=C1/C(=C\C=C2/CCC[C@]3(C)C(C(C)CC#CC(O)(C(F)(F)F)C(F)(F)F)=CCC23)CC(OC(C)=O)C[C@@H]1OC(C)=O (stereo partly shown)	10

Q) Fill in: MTD of CC(=O)OC1C/C(=C/C=C2\CCC[C@@]3(C)C2CCC3C2(C/C=C/C(O)(C(F)(F)F)C(F)(F)F)CC2)C[C@@H](OC(C)=O)C1 (stereo partly shown) is ___
A) 0.3

Q) Which MTD reading was recorded for the compound C=C1/C(=C\C=C2/CCC[C@]3(C)C(C(C)CCCC(C)(C)O)=CCC23)CC(OC(C)=O)C[C@@H]1OC(C)=O (stereo partly shown) ?
A) 1

Q) Given the entry [2H]C([2H])([2H])C(O)(CCC[C@@H](CC#CC(O)(C(F)(F)F)C(F)(F)F)C1CCC2/C(=C/C=C3C[C@@H](O)C[C@H](O)C3)CCC[C@@]21C)C([2H])([2H])[2H] (stereo partly shown) , report its measured MTD.
A) 0.2

---

Experiment: maximum tolerated dose (MTD) in rats
Assay type: in vivo
Settings: rat, in vivo, read-out: MTD
Text: The maximum tolerated dose (MTD) in rats is also listed for each compound.
Please note: t applies when MTD is 0.01 mg/kg or greater, and f applies otherwise.

Example entries begin here.
compound	class.assignment
C=C1/C(=C\C=C2/CCC[C@]3(C)C(C4(C/C=C/C(O)(C(F)(F)F)C(F)(F)F)CC4)=CCC23)CC(O)C[C@@H]1O (some centres unmarked)	f
C=C1/C(=C\C=C2/CCC[C@]3(C)C(C4(C/C=C\C(O)(C(F)(F)F)C(F)(F)F)CC4)=CCC23)CC(O)C[C@@H]1O (some centres unmarked)	f
C=C1/C(=C\C=C2/CCC[C@@]3(C)C2CCC3C(CCCC(C)(C)O)CCC(O)C(C)(C)O)C[C@@H](O)C[C@@H]1O (some centres unmarked)	t
CC(=O)OC1C/C(=C/C=C2\CCC[C@]3(C)C(C(C)CC#CC(C)(C)O)=CCC23)C[C@@H](OC(C)=O)C1 (some centres unmarked)	t
C=C1/C(=C\C=C2/CCC[C@@]3(C)C2CCC3C(C)CC#CC(C)(C)O)CC(OC(C)=O)C[C@@H]1OC(C)=O (some centres unmarked)	f

Q) Quick check, MTD >= 0.01 mg/kg? CC(=O)O[C@@H]1CC(=C/C=C2\CCC[C@]3(C)C([C@H](C)CCC(=O)C(C)(C)O)=CCC23)C[C@@H](OC(C)=O)C1 (some centres unmarked)
A) t

Q) Please indicate if the recorded MTD for C=C1/C(=C\C=C2/CCC[C@@]3(C)C2CCC3C2(CCCC(C)(C)O)CC2)CC(OC(C)=O)C[C@@H]1OC(C)=O (some centres unmarked) meets or exceeds 0.01 mg/kg.
A) t

Q) Given CC(=O)OC1C/C(=C/C=C2\CCC[C@]3(C)C(C(C)CCCC(C)(C)O)=CCC23)C[C@@H](OC(C)=O)C1 (some centres unmarked) , state whether its MTD is at least 0.01 mg/kg.
A) f

Q) Test whether the compound C=C1/C(=C\C=C2/CCC[C@]3(C)C([C@@H](C)C/C=C/C(O)(CC)CC)=CC[C@@H]23)C[C@@H](O)C[C@@H]1F records MTD of 0.01 mg/kg or higher.
A) t

Q) // inclusive: MTD at least 0.01 mg/kg? input: C=C1/C(=C\C=C2/CCC[C@]3(C)C(C(C)C/C=C/C(C)(C)O)=CCC23)CC(OC(C)=O)C[C@@H]1OC(C)=O (some centres unmarked)
A) f

---

Experiment: maximum tolerated dose (MTD) in rats
Format: in vivo
Details: rat, in vivo, read-out: MTD
Item-by-item account of MTD
Value and unit, in that order.

Some molecules with known MTD results, for comparison:
>>> df
                                   molecule  data_value
0  CC(=O)OC1C/C(=C/C=C2\CCC[C@@]3(C)C2CCC3C2(CC#CC(OC(C)=O)(C(F)(F)F)C(F)(F)F)CC2)C[C@@H](OC(C)=O)C1 (stereo partly shown)  0.01 mg/kg
1  CC(=O)OC1C/C(=C/C=C2\CCC[C@@]3(C)C2CCC3C2(CC#CC(O)(C(F)(F)F)C(F)(F)F)CC2)C[C@@H](OC(C)=O)C1 (stereo partly shown)  0.01 mg/kg
2  C=C1/C(=C\C=C2/CCC[C@]3(C)C(C(C)CC#CC(C)(C)O)=CCC23)CC(OC(C)=O)C[C@@H]1OC(C)=O (stereo partly shown)  0.01 mg/kg

Next:
Q) Need MTD of CC(=O)OC1C/C(=C/C=C2\CCC[C@@]3(C)C2CCC3C2(C/C=C\C(O)(C(F)(F)F)C(F)(F)F)CC2)C[C@@H](OC(C)=O)C1 (stereo partly shown) , thanks.
A) 0.01 mg/kg

Value source: patent US20070054887A1
